- measured target: HLA-A*02:01
- run description: IEDB peptide-MHC binding, purified MHC/competitive/fluorescence; bounds were set here for any values at or beyond the usual limits of such assays
- recorded conditions: source organism: Gorilla gorilla gorilla
observation type: IC50

Prompt: Record RYSHWTKL : what is its IC50 with HLA-A*02:01?
Response: ≥ 20 µM

---

- measured target: HLA-B*51:01
- run description: IEDB peptide-MHC binding, purified MHC/competitive/radioactivity; filed as Kd, often an IC50 or EC50 that approximates it; bounds were set here for any values at or beyond the usual limits of such assays
- recorded conditions: source organism: Mammarenavirus machupoense
observation type: Kd (nM)
Supply the numeric figure in nM, leaving out any unit text.

Prompt: Name the recorded Kd for LPTSITVPV .
Response: 1970

---

Kd listing for selected sequences.
- measured target: HLA-B*08:01
- run description: IEDB peptide-MHC binding, purified MHC/competitive/radioactivity; filed as Kd, often an IC50 or EC50 that approximates it; bounds were set here for any values at or beyond the usual limits of such assays
- recorded conditions: source organism: Dengue virus 1 Brazil/97-11/1997
Give the value; after it, write the unit.

Example cases with answers are listed next.
sequence data: RRKRSVTMLL
Kd: 3.65 µM
--
sequence data: KRKLRTLIL
Kd: 0.462 µM
--
sequence data: LAKRFSKGLL
Kd: 2.53 µM

Please turn your attention to the following entry.
Prompt: Look up Kd for this sequence: AGRRSVSGDL
Response: 9.26 µM

---

- measured target: HLA-A*01:01
- run description: IEDB peptide-MHC binding, purified MHC/competitive/radioactivity; filed as Kd, often an IC50 or EC50 that approximates it; bounds were set here for any values at or beyond the usual limits of such assays
- recorded conditions: source organism: SARS coronavirus Tor2
# label = yes if Kd < 4 µM else no

As a guide, the following entries are already answered.
sequence data: CKSKNPLLY
class assignment: no

sequence data: FMMSRRRLL
class assignment: no

sequence data: TMADLVYAL
class assignment: no

sequence data: QWNLVIGFLF
class assignment: no

sequence data: SYEHQTPFEI
class assignment: yes

Prompt: Identify whether the sequence ATVAYFNMVY records Kd below 4 µM.
Response: yes

Prompt: Bench note: check whether MYLKLRSETL shows Kd below 4 µM
Response: no

---

- measured target: HLA-B*58:01
- run description: IEDB peptide-MHC binding, purified MHC/direct/fluorescence; filed as Kd, often an IC50 or EC50 that approximates it; bounds were set here for any values at or beyond the usual limits of such assays
- recorded conditions: source organism: Vibrio parahaemolyticus
Below, each of the sequences is paired with its reported Kd value.

sequence data: VFMDNAFKK
Kd: ≥ 20 µM
//
sequence data: QYDDLHKKF
Kd: ≥ 20 µM

Prompt: # Kd lookup, item ASEELMDKY
Response: ≥ 20 µM

---

- measured target: HLA-A*68:01
- run description: IEDB peptide-MHC binding, purified MHC/competitive/radioactivity; filed as Kd, often an IC50 or EC50 that approximates it; bounds were set here for any values at or beyond the usual limits of such assays
- recorded conditions: source organism: Lymphocytic choriomeningitis virus (strain Pasteur)
observation type: Kd (µM)
Field: numeric (µM). Do not append units.

Prompt: Record TYLGPLNCK : what is its Kd with HLA-A*68:01?
Response: 0.699
